B1: PhoQ; a variant is named by its letters at X, in order, P23837 (parent)
chain: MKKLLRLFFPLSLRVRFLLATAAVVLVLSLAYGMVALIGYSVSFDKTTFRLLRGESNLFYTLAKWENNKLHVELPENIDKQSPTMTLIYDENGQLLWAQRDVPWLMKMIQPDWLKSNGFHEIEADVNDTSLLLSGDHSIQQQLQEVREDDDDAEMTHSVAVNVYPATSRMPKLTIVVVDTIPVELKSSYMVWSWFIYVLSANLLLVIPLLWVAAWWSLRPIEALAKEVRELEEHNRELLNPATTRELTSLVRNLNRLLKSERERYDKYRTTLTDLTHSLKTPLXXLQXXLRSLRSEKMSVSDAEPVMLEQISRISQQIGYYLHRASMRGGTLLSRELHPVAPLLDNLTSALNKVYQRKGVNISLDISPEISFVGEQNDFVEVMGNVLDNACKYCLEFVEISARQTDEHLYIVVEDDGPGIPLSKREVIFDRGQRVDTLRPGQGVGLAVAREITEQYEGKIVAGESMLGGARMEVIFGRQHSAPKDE

# Variants of: B1
# experiment_notes: enrichment ratio after two sorts for PhoP signalling (ratio (wild type AVST 3.29)); higher = more functional
# particulars: with PhoP (E. coli)
The full ranking holds about 140,000 sequences; the median of “enrichment ratio after two sorts for PhoP signalling” is about 0, and the highest 2% start at about 11. For the sample, the highest values were picked, then their nearest neighbours and some sequences at random.
Would you mind telling me the reported enrichment ratio of each entry?

Find the recorded enrichment ratio belonging to `NSSN` and report it.
≤ 0.25

Please give the result for `TNYM` too.
1.85

Please give the result for `SDSN` too.
≤ 0.25

Please give the result for `KSSN` too.
≤ 0.25

Please give the result for `SHRP` too.
≤ 0.25

Please give the result for `SCSN` too.
12.3

Please give the result for `KQSN` too.
≤ 0.25

Please give the result for `PNEG` too.
≤ 0.25

Please give the result for `SSSN` too.
12.1

Please give the result for `WNFI` too.
≤ 0.25

Please give the result for `HTKL` too.
≤ 0.25
